B1: library; a variant is named by its letters at N, in order (parent)
chain: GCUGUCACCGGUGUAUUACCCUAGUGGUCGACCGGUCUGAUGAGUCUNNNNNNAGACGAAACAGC

Variants of: B1
Experiment: normalized RNA/DNA level with ligand (relative to sTRSVctl = 100) (log10 (% of sTRSVctl)); ligand: hypoxanthine (xanthine aptamer); higher = less ribozyme self-cleavage, higher mRNA level
Conditions: ligand concentration (+) RNA-Seq: 5 mM, HEK293T, reporter: mCherry (pCS4076), ligand present: yes
measured.attribute: normalized RNA/DNA level with ligand (log10)
Reply with just the number.

normalized RNA/DNA level with ligand (log10) lookup needed for "ACUAAU" , thanks.
1.92

normalized RNA/DNA level with ligand (log10) lookup needed for "CCAAAC" , thanks.
1.93

normalized RNA/DNA level with ligand (log10) lookup needed for "UAAUUC" , thanks.
1.96

normalized RNA/DNA level with ligand (log10) lookup needed for "GCAGCU" , thanks.
2.01

normalized RNA/DNA level with ligand (log10) lookup needed for "UCGACG" , thanks.
1.94

normalized RNA/DNA level with ligand (log10) lookup needed for "CUAGUA" , thanks.
1.92

normalized RNA/DNA level with ligand (log10) lookup needed for "GAGCUU" , thanks.
1.92

normalized RNA/DNA level with ligand (log10) lookup needed for "GCACCG" , thanks.
1.89

normalized RNA/DNA level with ligand (log10) lookup needed for "UCACCC" , thanks.
1.97

normalized RNA/DNA level with ligand (log10) lookup needed for "UAAUAA" , thanks.
1.9

normalized RNA/DNA level with ligand (log10) lookup needed for "UGUACG" , thanks.
1.93

normalized RNA/DNA level with ligand (log10) lookup needed for "AACUUU" , thanks.
1.92

normalized RNA/DNA level with ligand (log10) lookup needed for "AGAACA" , thanks.
1.91

normalized RNA/DNA level with ligand (log10) lookup needed for "CGUUGC" , thanks.
1.96

normalized RNA/DNA level with ligand (log10) lookup needed for "AACGUC" , thanks.
2.01

normalized RNA/DNA level with ligand (log10) lookup needed for "UUGUAU" , thanks.
1.94

normalized RNA/DNA level with ligand (log10) lookup needed for "CCUGAU" , thanks.
1.91

normalized RNA/DNA level with ligand (log10) lookup needed for "UCUCUG" , thanks.
1.77

normalized RNA/DNA level with ligand (log10) lookup needed for "GCCCUU" , thanks.
1.95

normalized RNA/DNA level with ligand (log10) lookup needed for "CUGGAC" , thanks.
1.97

normalized RNA/DNA level with ligand (log10) lookup needed for "GCUCAA" , thanks.
1.92

normalized RNA/DNA level with ligand (log10) lookup needed for "CCGUUG" , thanks.
1.88

normalized RNA/DNA level with ligand (log10) lookup needed for "GGGGGU" , thanks.
1.94

normalized RNA/DNA level with ligand (log10) lookup needed for "AAUUUU" , thanks.
1.95

normalized RNA/DNA level with ligand (log10) lookup needed for "UCCAAC" , thanks.
2

normalized RNA/DNA level with ligand (log10) lookup needed for "GUAUCA" , thanks.
1.96

normalized RNA/DNA level with ligand (log10) lookup needed for "UCAUGC" , thanks.
1.95

normalized RNA/DNA level with ligand (log10) lookup needed for "GUUUGG" , thanks.
1.92

normalized RNA/DNA level with ligand (log10) lookup needed for "ACCGUC" , thanks.
1.98

normalized RNA/DNA level with ligand (log10) lookup needed for "CAUGCA" , thanks.
1.98

normalized RNA/DNA level with ligand (log10) lookup needed for "CUGCCA" , thanks.
2.03

normalized RNA/DNA level with ligand (log10) lookup needed for "ACAGGC" , thanks.
1.89

normalized RNA/DNA level with ligand (log10) lookup needed for "AACACC" , thanks.
1.93

normalized RNA/DNA level with ligand (log10) lookup needed for "GACUCA" , thanks.
1.97

normalized RNA/DNA level with ligand (log10) lookup needed for "UGUGUU" , thanks.
1.95

normalized RNA/DNA level with ligand (log10) lookup needed for "GAGCAA" , thanks.
1.89

normalized RNA/DNA level with ligand (log10) lookup needed for "UGGGAC" , thanks.
1.9

normalized RNA/DNA level with ligand (log10) lookup needed for "CAAUGU" , thanks.
1.91

normalized RNA/DNA level with ligand (log10) lookup needed for "ACCUCU" , thanks.
1.99

normalized RNA/DNA level with ligand (log10) lookup needed for "CGCUUC" , thanks.
2

normalized RNA/DNA level with ligand (log10) lookup needed for "CUAUGU" , thanks.
1.95

normalized RNA/DNA level with ligand (log10) lookup needed for "AAAUUU" , thanks.
1.95

normalized RNA/DNA level with ligand (log10) lookup needed for "CGCCCU" , thanks.
2.08

normalized RNA/DNA level with ligand (log10) lookup needed for "GCCACG" , thanks.
1.9

normalized RNA/DNA level with ligand (log10) lookup needed for "CCUGAG" , thanks.
1.92

normalized RNA/DNA level with ligand (log10) lookup needed for "GCCUGC" , thanks.
1.98

normalized RNA/DNA level with ligand (log10) lookup needed for "CAAAUG" , thanks.
1.91

normalized RNA/DNA level with ligand (log10) lookup needed for "CAUAGA" , thanks.
1.93

normalized RNA/DNA level with ligand (log10) lookup needed for "AUCGUA" , thanks.
1.9

normalized RNA/DNA level with ligand (log10) lookup needed for "UCGCGU" , thanks.
1.9

normalized RNA/DNA level with ligand (log10) lookup needed for "ACGUAA" , thanks.
1.86

normalized RNA/DNA level with ligand (log10) lookup needed for "UUCUCG" , thanks.
2.01

normalized RNA/DNA level with ligand (log10) lookup needed for "AGCGCG" , thanks.
1.91

normalized RNA/DNA level with ligand (log10) lookup needed for "UGGCCA" , thanks.
1.97

normalized RNA/DNA level with ligand (log10) lookup needed for "GGACAG" , thanks.
1.85

normalized RNA/DNA level with ligand (log10) lookup needed for "ACCAAA" , thanks.
1.94

normalized RNA/DNA level with ligand (log10) lookup needed for "CUAUUA" , thanks.
1.94

normalized RNA/DNA level with ligand (log10) lookup needed for "CCUUCC" , thanks.
1.99

normalized RNA/DNA level with ligand (log10) lookup needed for "UGCGGA" , thanks.
1.87

normalized RNA/DNA level with ligand (log10) lookup needed for "UACUCC" , thanks.
2

normalized RNA/DNA level with ligand (log10) lookup needed for "UUGAGU" , thanks.
1.92

normalized RNA/DNA level with ligand (log10) lookup needed for "GGGAGC" , thanks.
1.74

normalized RNA/DNA level with ligand (log10) lookup needed for "GUAGCA" , thanks.
1.88

normalized RNA/DNA level with ligand (log10) lookup needed for "ACUGCA" , thanks.
1.96

normalized RNA/DNA level with ligand (log10) lookup needed for "AGACCA" , thanks.
1.93

normalized RNA/DNA level with ligand (log10) lookup needed for "UAGUAG" , thanks.
1.86

normalized RNA/DNA level with ligand (log10) lookup needed for "GGACCA" , thanks.
1.92

normalized RNA/DNA level with ligand (log10) lookup needed for "GGAAUG" , thanks.
1.84

normalized RNA/DNA level with ligand (log10) lookup needed for "AUUCCC" , thanks.
1.9

normalized RNA/DNA level with ligand (log10) lookup needed for "AUGGCG" , thanks.
1.89

normalized RNA/DNA level with ligand (log10) lookup needed for "AAGCCU" , thanks.
1.96

normalized RNA/DNA level with ligand (log10) lookup needed for "CCCAGC" , thanks.
2

normalized RNA/DNA level with ligand (log10) lookup needed for "UUCACC" , thanks.
1.98

normalized RNA/DNA level with ligand (log10) lookup needed for "CUGGCA" , thanks.
1.97

normalized RNA/DNA level with ligand (log10) lookup needed for "GGCACU" , thanks.
2.01

normalized RNA/DNA level with ligand (log10) lookup needed for "UGAUCC" , thanks.
1.91

normalized RNA/DNA level with ligand (log10) lookup needed for "GUUAAA" , thanks.
1.93

normalized RNA/DNA level with ligand (log10) lookup needed for "GUGCCU" , thanks.
1.98

normalized RNA/DNA level with ligand (log10) lookup needed for "CAGAAA" , thanks.
1.87
